Assay System: CX3CR1 (Homo sapiens)
Sequence (P49238 1-355): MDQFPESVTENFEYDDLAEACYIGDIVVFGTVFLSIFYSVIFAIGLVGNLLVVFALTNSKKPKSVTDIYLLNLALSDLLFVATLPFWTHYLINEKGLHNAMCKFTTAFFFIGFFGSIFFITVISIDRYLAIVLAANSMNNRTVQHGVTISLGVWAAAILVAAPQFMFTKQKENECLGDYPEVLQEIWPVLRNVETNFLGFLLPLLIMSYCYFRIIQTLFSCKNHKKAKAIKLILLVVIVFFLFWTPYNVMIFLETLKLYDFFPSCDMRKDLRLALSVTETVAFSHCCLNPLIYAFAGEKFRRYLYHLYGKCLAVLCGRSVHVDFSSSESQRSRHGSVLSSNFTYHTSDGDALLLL
Protocol Text: Inhibition of cell migration in fractalkine-induced chemotaxis assay
Reported Conditions: fractalkine-induced (0.3 nM) migration of CX3CR1-expressing B300 cells; preincubated with test compound for 30 minutes; Transwell, 3.5 hours at 37°C
Entries and their measured IC50 follow.
Answer format: numeric, nM implied, no suffix.

Record excerpt, results attached:
Test Smiles	Recorded Metric	Numeric Readout
C[C@H]1CN(Cc2c(Cl)cccc2C(F)(F)F)C[C@@]1(CC(=O)O)C(=O)NC1CCN(CC2=CCCCC2)CC1	IC50	4
C[C@H]1CN(Cc2c(Cl)cccc2C(F)F)C[C@@]1(CC(=O)O)C(=O)NC1CCN(CC2=CCCC2)CC1	IC50	16
C[C@H]1CN(Cc2c(Cl)cccc2C(F)F)C[C@@]1(CC(=O)O)C(=O)NC1CCN(CC2=CCCCC2)CC1	IC50	6
C[C@H]1CN(Cc2c(Cl)cccc2Cl)C[C@@]1(CC(=O)O)C(=O)NC1CCN(CC2CCC(F)(F)CC2)CC1	IC50	21
CCCCCCN1CCC(NC(=O)[C@]2(CC(=O)O)CN(Cc3c(Cl)cccc3C(F)F)C[C@@H]2C)CC1	IC50	14

# input Give CX3CR1 (Homo sapiens) IC50 for `Cc1cccc(Cl)c1CN1C[C@H](C)[C@](CC(=O)O)(C(=O)NC2CCN(CC3=CCCCC3)CC2)C1`
# output 11

# input Give CX3CR1 (Homo sapiens) IC50 for `C[C@H]1CN(Cc2c(Cl)cccc2C(F)F)C[C@@]1(CC(=O)O)C(=O)NC1CCN(CC2CCCCC2)CC1`
# output 12
